# measured.target: T. gondii ME49Luc in IFN-y HeLa, luciferase, 72 h
# experimental.details: T. gondii growth inhibition with IFN-gamma, dose response, cell-based, ME49Luc, HeLa, luciferase, 72 h (AID 1259418)
Records with an inconclusive call do not appear. The source made the active and inactive calls.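 Rule for the calls: active = fitted half-maximal concentration of signal decrease at or below twice the sample's top tested concentration; inconclusive = flat curve between -70 and -30 percent, or poor fit; inactive = flat within 30 percent, signal rise, or potency above limit.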
// classify into 1 (yes) (active), 0 (no) (inactive)

Here are 2 compounds together with their reported answers.
CO[C@@H]1[C@@H](OC(N)=O)[C@@H](O)[C@H](Oc2ccc3c(O)c(NC(=O)c4ccc(O)c(CC=C(C)C)c4)c(=O)oc3c2C)OC1(C)C; 1 (yes)
CCc1c(C)sc2c1CCN(Cc1nc(-c3cccc(C)c3)oc1C)C2c1ccccc1 (centres undefined); 1 (yes)

[ask] Kindly provide the recorded test outcome for the following compound: Cc1ccc2c(c1C)-n1cccc1C1(CCN(C(=O)c3ccccc3F)CC1)N2
[reply] 0 (no)

[ask] Please answer likewise for COc1ccc(-c2nc(N(Cc3ccco3)CC3CCCO3)c3ccccc3n2)cc1 (centres undefined)
[reply] 1 (yes)

[ask] Another: Cc1ccc(C(=O)Nc2ccc3c(c2)CCC(=O)N3)s1
[reply] 1 (yes)

[ask] Same question, Cc1ccc(C)c(S(=O)(=O)N2CCC3(CC2)c2ncc(-c4cccc(F)c4)n2CCN3C)c1 this time
[reply] 1 (yes)

[ask] Field entry: COc1ccc(-c2nc(Nc3ccc(OC)cc3OC)c3ccccc3n2)cc1
[reply] 1 (yes)

[ask] Next record, please: Cc1cccc(NC(=O)c2cc(-c3cnc(N4CCOCC4)nc3)cn2CC2CC2)c1
[reply] 1 (yes)

[ask] What about Cc1ccc(-c2coc(-c3ccc(NC(=O)Nc4ccc(Br)cc4)cc3)n2)cc1 ?
[reply] 0 (no)

[ask] Also check Cc1nc2c(cnn2-c2ccccc2)c(=O)n1-c1cccc2ccccc12
[reply] 1 (yes)

[ask] CCN(CC)c1nc(-c2ccc(OC)cc2)nc2ccccc12 ?
[reply] 1 (yes)

[ask] Here is the next compound: Cc1ccn(CCNc2nccc(-c3c(C)nn(C)c3C)n2)n1
[reply] 1 (yes)

[ask] Then what about the compound COC[C@]12CCC[C@@H]1CN(S(=O)(=O)c1cccc(OC)c1)C2 ?
[reply] 1 (yes)

[ask] Please do the same for O=C(Cc1cccnc1)N1CC(=O)N2[C@H](CO)[C@@H](c3ccc(/C=C/c4ccccc4)cc3)[C@@H]2C1 as well.
[reply] 1 (yes)
